These data points were gathered from paper PMC5540273.

Below, each entry is listed alongside its reported %Inh.
System: PIK3C2B
conditions: concentration: 1 μM, replicates: in singlicate; n = 1;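 also: KINOMEscan kinase panel screen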
Your answer should be a plain number; it is taken to be in %.

Worked cases, answers included:
molecule: Cn1ccc2ncnc(Nc3ccc(Oc4cccc(Cl)c4)c(Cl)c3)c21
recordedMetric: %Inh
reported: 0
--
molecule: OCCOCCn1ccc2ncnc(Nc3ccc(Oc4cccc(Cl)c4)c(Cl)c3)c21
recordedMetric: %Inh
reported: 0

Tell me %Inh of "Fc1cccc(COc2ccc(Nc3ncnc4sc(-c5ccc[nH]5)cc34)cc2Cl)c1" when tested on PIK3C2B.
0

Tell me %Inh of "COc1cc2ncnc(Nc3ccc(OCc4ccccc4Br)c(Cl)c3)c2cc1OC.Cl" when tested on PIK3C2B.
0

Tell me %Inh of "COc1ccc(-c2oc3ncnc(N)c3c2-c2ccc(OC)cc2)cc1" when tested on PIK3C2B.
0

Tell me %Inh of "Cc1ccc(C)c(NC(=O)NCCNc2ccnc(Nc3ccc(F)cc3)n2)c1" when tested on PIK3C2B.
0

Tell me %Inh of "CS(=O)(=O)CCNCc1nc(-c2ccc3ncnc(Nc4ccc(OCc5cccc(F)c5)c(Cl)c4)c3c2)cs1.Cl" when tested on PIK3C2B.
37

Tell me %Inh of COc1ccc(Nc2nccc(N3CCC(NC(=O)Nc4ccc5c(c4)OCO5)C3)n2)cc1 (stereo not drawn) when tested on PIK3C2B.
9

Tell me %Inh of "CC(C)(C)c1ccc(-n2cnc3c(N)ncnc32)cc1" when tested on PIK3C2B.
100

Tell me %Inh of "Fc1ccc(-c2ncn(CCCNCc3ccccc3)c2-c2ccncc2)cc1" when tested on PIK3C2B.
1

Tell me %Inh of "COC(=O)c1cccc(NC(=O)NCCNc2ccnc(Nc3ccc(F)cc3)n2)c1" when tested on PIK3C2B.
4

Tell me %Inh of "COc1cc2c(Nc3cccc(NC(=O)c4ccccc4)c3)ncnc2cc1OCCCN1CCOCC1" when tested on PIK3C2B.
0

Tell me %Inh of "COC(=O)c1c(-c2ccccc2)c2cc(Cl)ccc2c(=O)n1Cc1ccc(S(C)(=O)=O)cc1" when tested on PIK3C2B.
10

Tell me %Inh of "Cl.Cn1ccc(-c2cccc(Nc3ccnc4cc(-c5nccs5)ccc34)c2)n1" when tested on PIK3C2B.
0

Tell me %Inh of "COc1ccc(NC(=O)c2ccc(-c3cc(-c4nnc(C)o4)ccc3C)cc2)cc1" when tested on PIK3C2B.
0

Tell me %Inh of "N#Cc1ccc(Oc2ccc(Nc3ncnc4cc[nH]c34)cc2Cl)cc1" when tested on PIK3C2B.
0

Tell me %Inh of "FC(F)(F)c1cc(Nc2nccc(-c3c(-c4ccc(Cl)cc4)nn4ncccc34)n2)ccc1Cl" when tested on PIK3C2B.
0

Tell me %Inh of "CSc1ccc(NC2=C(c3ccccc3Cl)C(=O)NC2=O)cc1" when tested on PIK3C2B.
0

###

Below, each entry is listed alongside its reported %Inh.
Tested on: MST2
Construct: gene STK3
conditions: concentration: 1 μM, replicates: in singlicate; n = 1
Your answer should be a plain number; it is taken to be in %.

compound: N#Cc1ccc(Oc2ccc(Nc3ncnc4cc[nH]c34)cc2Cl)cc1
quantityUnit: %
reported: 19

Fill in %Inh for record Nc1n[nH]c2nnc(-c3ccccc3)cc12 [SB-517389]
5

Fill in %Inh for record Cl.O=S(=O)(c1cccc(F)c1)c1ccc(Nc2ncnc3cc(Br)sc23)cc1Cl [GSK306886]
9

Fill in %Inh for record COC(=O)c1cccc(NC(=O)NCCNc2ccnc(Nc3ccc(F)cc3)n2)c1 [GSK1379883]
5

Fill in %Inh for record COc1ccc(Nc2nccc(N3CCC(NC(=O)c4cccc(NC(C)=O)c4)C3)n2)cc1 (centres unmarked) [GSK1379732]
10
